Reported melting point values are given for each entry in this list.

Consider the worked cases shown below.
MOLECULE: CCC(C(=O)N(CC)CC)n1cc(C)c(-c2ccccc2)n1 (stereo not given)
melting point: 80 to 82 °C
//
MOLECULE: CCCCNc1c(C(=O)OCC)c(C)nc2c1ncn2C
melting point: 62 to 63 °C
//
MOLECULE: Cc1ccn(-c2ccc(C(=O)N3Cc4ccc(C)n4Cc4ccccc43)c(Cl)c2)n1
melting point: 178 to 180 °C
//
MOLECULE: CNC#CCC1=Cc2ccccc2Sc2ccc(Cl)cc21
melting point: 92 to 94 °C
//
MOLECULE: CCC(COC)(OC)c1cccc(OCOC)c1 (stereo not given)
melting point: 74 to 75 °C
//
MOLECULE: Nc1ncc2cc(-c3c(Cl)cccc3Cl)c(=O)n(CCCc3ccccc3)c2n1
melting point: 161 to 163 °C

Documented melting point of CN1C(=O)C(=Cc2cc(C(C)(C)C)c(O)c(C(C)(C)C)c2)SC1O (stereo not given) : 165 to 170 °C

Documented melting point of CCOC(=O)CCc1csc2c(C(=O)OCC)c(=O)c3cc(F)c(Cl)cc3n12 : 200 °C

Documented melting point of O=C(O)C1C2CC3C(C2=O)C31 (stereo not given) : 144 to 145 °C

Documented melting point of O=[N+]([O-])c1ccc2c(c1)CC(O)c1ccccc1S2 (stereo not given) : 144 to 146 °C
